Data credit: patent US6376510B1

- System: anesthetized juvenile pigs
- assay-method-text: animal or person
- Format: in vivo
- measurement-context: pig; at 80-85% neuromuscular blocking dose
reported-property: VB (vagal block) (%)
# value in %; strip the unit string

Sample answers from the record:
1) CC(=O)Oc1ccc(C[N+]2(C)[C@@H]3CC[C@H]2C[C@@H](OC(=O)C2CCCC(C(=O)O[C@H]4C[C@H]5CC[C@@H](C4)[N+]5(C)Cc4ccc(OC(C)=O)c(OC(C)=O)c4)C2)C3)cc1OC(C)=O.[Br-].[Br-] (some centres unmarked) ... 54
2) COc1cc(C[N+]2(C)[C@@H]3CC[C@H]2C[C@@H](OC(=O)C2CCC2C(=O)O[C@H]2C[C@H]4CC[C@@H](C2)[N+]4(C)Cc2ccc(OC(C)=O)c(OC)c2)C3)ccc1OC(C)=O.[Br-].[Br-] (some centres unmarked) ... 46
3) COc1cc(C[N+]2(C)[C@@H]3CC[C@H]2C[C@@H](OC(=O)C2CCCC(C(=O)O[C@H]4C[C@H]5CC[C@@H](C4)[N+]5(C)Cc4ccc(OC(C)=O)c(OC)c4)C2)C3)ccc1OC(C)=O.[Br-].[Br-] (some centres unmarked) ... 65
4) CCC(=O)Oc1ccc(C[N+]2(C)[C@@H]3CC[C@H]2C[C@@H](OC(=O)CCCCC(=O)O[C@H]2C[C@H]4CC[C@@H](C2)[N+]4(C)Cc2ccc(OC(=O)CC)c(OC(=O)CC)c2)C3)cc1OC(=O)CC.[Br-].[Br-] (some centres unmarked) ... 65

Now let's try a different one.
CC(=O)Oc1ccc(C[N+]2(C)[C@@H]3CC[C@H]2C[C@@H](OC(=O)C2CCC2C(=O)O[C@H]2C[C@H]4CC[C@@H](C2)[N+]4(C)Cc2ccc(OC(C)=O)c(OC(C)=O)c2)C3)cc1OC(C)=O.[Br-].[Br-] (some centres unmarked) has a reported VB (vagal block) of 42

---

- System: rabbits
- assay-method-text: In vivo neuromuscular block and cardiovascular side effects, rabbit (Example 8, Table 7)
- measurement-context: spontaneous recovery, 25-75% neuromuscular response
reported-property: RI (recovery index)
Write the quantity with the unit trailing the number.

Illustrative cases are given below, each with its answer.
1) CCC(=O)Oc1ccc(C[N+]2(C)C3CCCC2CC(OC(=O)CCCC(=O)OC2CC4CCCC(C2)[N+]4(C)Cc2ccc(OC(=O)CC)c(OC(=O)CC)c2)C3)cc1OC(=O)CC.[Br-].[Br-] (centres unmarked) ... 0.55 min
2) COc1cc(C[N+]2(C)[C@@H]3CC[C@H]2C[C@@H](OC(=O)C2CCC2C(=O)O[C@H]2C[C@H]4CC[C@@H](C2)[N+]4(C)Cc2cc(OC)c(OC(C)=O)c(OC)c2)C3)cc(OC)c1OC(C)=O.[Br-].[Br-] (some centres unmarked) ... 0.55 min
3) CCC(=O)Oc1c(OC)cc(C[N+]2(C)[C@@H]3CC[C@H]2C[C@@H](OC(=O)C2CCCC(C(=O)O[C@H]4C[C@H]5CC[C@@H](C4)[N+]5(C)Cc4cc(OC)c(OC(=O)CC)c(OC)c4)C2)C3)cc1OC.[Br-].[Br-] (some centres unmarked) ... 0.4 min

Consider C[N+]1(Cc2ccccc2)[C@@H]2CC[C@H]1C[C@@H](OC(=O)CCCCCCCCC(=O)O[C@H]1C[C@H]3CC[C@@H](C1)[N+]3(C)Cc1ccccc1)C2.[Br-].[Br-] (some centres unmarked) [reference compound] . Its measured RI (recovery index) is 6 min

According to the records, this compound COc1ccc(OC)c(C[N+]2(C)C3CCC2CC(OC(=O)C2C4C=CC(C4)C2C(=O)OC2CC4CCC(C2)[N+]4(C)Cc2cc(OC)ccc2OC)C3)c1.[Br-].[Br-] (centres unmarked) displays RI (recovery index) of 9 min
